cAMP EMax(obs.) overview
# SYSTEM: P1R-delNt, truncated human P1R deleted for residues (24-181) (Homo sapiens, UniProt Q03431)
# Construct: expressed in transfected cells; host or cells: COS-7 (transient, FuGENE 6)
# ASSAY_METHOD_TEXT: cAMP stimulation in COS-7 cells expressing hP1R-delNt
# Type: cell-based
# RUN_CONDITIONS: hP1R-delNT, basal 9.5 ± 1.3, asterisk = plateau not attained
Square brackets hold non-standard residues; d marks the D form. Peptide text beside a SMILES is read from it. hArg = N=C(N)NCCCC[C@H](N)C(=O)O; Aib = CC(C)(N)C(=O)O
Quick note: give the figure in pmole/well, leave out the unit.

Some molecules with recorded cAMP EMax(obs.):
CC[C@H](C)[C@H](NC(=O)[C@H](CCC(=O)O)NC(=O)[C@H](C)NC(=O)[C@@H](NC(=O)[C@H](C)N)C(C)C)C(=O)N[C@@H](CCC(N)=O)C(=O)N[C@@H](CC(C)C)C(=O)N[C@@H](CCSC)C(=O)N[C@@H](Cc1c[nH]cn1)C(=O)N[C@@H](CCC(N)=O)C(=O)N[C@@H](CCCCNC(=N)N)C(=O)N[C@@H](C)C(=O)N[C@@H](CCCCN)C(=O)N[C@@H](Cc1c[nH]c2ccccc12)C(N)=O [[M]PTH(1-14), reference compound] (H-AVAEIQLMHQ[hArg]AKW-NH2): 220
CC[C@H](C)[C@H](NC(=O)[C@H](CCC(=O)O)NC(=O)C(C)(C)NC(=O)[C@@H](NC(=O)C(C)(C)N)C(C)C)C(=O)N[C@@H](CCC(N)=O)C(=O)N[C@@H](CC(C)C)C(=O)N[C@@H](CCSC)C(=O)N[C@@H](Cc1c[nH]cn1)C(=O)N[C@@H](CCC(N)=O)C(N)=O [[Aib^1,3,M]PTH(1-10), [Aib^1,3,Gln^10]PTH(1-10)] (H-[Aib]V[Aib]EIQLMHQ-NH2): 84
CC[C@H](C)[C@H](NC(=O)[C@H](CCC(=O)O)NC(=O)C(C)(C)NC(=O)[C@@H](NC(=O)C(C)(C)N)C(C)C)C(=O)N[C@@H](CCC(N)=O)C(=O)N[C@@H](CC(C)C)C(=O)N[C@@H](CCSC)C(=O)N[C@@H](Cc1c[nH]cn1)C(=O)N[C@@H](CCC(N)=O)C(=O)N[C@@H](CCCCNC(=N)N)C(N)=O [[Aib^1,3,M]PTH(1-11), AibValAibGluIleGlnLeuMetHisGlnHar] (H-[Aib]V[Aib]EIQLMHQ[hArg]-NH2): 220

Now for a further molecule.
Please list cAMP EMax(obs.) recorded for the molecule CC[C@H](C)[C@H](NC(=O)[C@H](CCC(=O)O)NC(=O)C(C)(C)NC(=O)[C@@H](NC(=O)C(C)(C)N)C(C)C)C(=O)N[C@@H](CCC(N)=O)C(=O)N[C@@H](CC(C)C)C(=O)N[C@@H](CCSC)C(=O)N[C@@H](Cc1c[nH]cn1)C(=O)N[C@@H](CCC(N)=O)C(=O)N[C@@H](CCCCNC(=N)N)C(=O)N[C@@H](C)C(=O)N[C@@H](CCCCN)C(=O)N[C@@H](Cc1c[nH]c2ccccc12)C(N)=O [[Aib^1,3,M]PTH(1-14)] (H-[Aib]V[Aib]EIQLMHQ[hArg]AKW-NH2)
250

---

# SYSTEM: human P1R (Homo sapiens)
# Construct: expressed in transfected cells; host or cells: HKRK-B28 (porcine kidney LLC-PK1, stably transfected)
# ASSAY_METHOD_TEXT: cAMP stimulation in HKRK-B28 cells
# Assay type: cell-based
# RUN_CONDITIONS: basal 4.0 ± 0.1 pmole/well not subtracted
Square brackets hold non-standard residues; d marks the D form. Peptide text beside a SMILES is read from it. hArg = N=C(N)NCCCC[C@H](N)C(=O)O; Aib = CC(C)(N)C(=O)O
REPORTED_ENDPOINT: cAMP EMax(obs.) (pmole/well)
Quick note: give the figure in pmole/well, leave out the unit.

CC[C@H](C)[C@H](NC(=O)C(C)(C)NC(=O)[C@H](C)NC(=O)[C@@H](NC(=O)[C@H](C)N)C(C)C)C(=O)N[C@@H](CCC(N)=O)C(=O)N[C@@H](CC(C)C)C(=O)N[C@@H](CCSC)C(=O)N[C@@H](Cc1c[nH]cn1)C(=O)N[C@@H](CCC(N)=O)C(=O)N[C@@H](CCCCNC(=N)N)C(=O)N[C@@H](C)C(=O)N[C@@H](CCCCN)C(=O)N[C@@H](Cc1c[nH]c2ccccc12)C(N)=O [Aib-4] (H-AVA[Aib]IQLMHQ[hArg]AKW-NH2): 221

Now for a further molecule.
Please list cAMP EMax(obs.) recorded for the molecule CC[C@H](C)[C@H](NC(=O)[C@H](CCC(=O)O)NC(=O)[C@H](C)NC(=O)[C@@H](NC(=O)[C@H](C)N)C(C)C)C(=O)N[C@@H](CCC(N)=O)C(=O)N[C@@H](CC(C)C)C(=O)N[C@@H](CCSC)C(=O)N[C@@H](Cc1c[nH]cn1)C(=O)N[C@@H](CCC(N)=O)C(=O)NC(C)(C)C(=O)N[C@@H](C)C(=O)N[C@@H](CCCCN)C(=O)N[C@@H](Cc1c[nH]c2ccccc12)C(N)=O [Aib-11] (H-AVAEIQLMHQ[Aib]AKW-NH2)
96

---

# SYSTEM: human P1R (Homo sapiens)
# Construct: expressed in transfected cells; host or cells: HKRK-B28 (porcine kidney LLC-PK1, stably transfected)
# Sequence (Q03431 27-593): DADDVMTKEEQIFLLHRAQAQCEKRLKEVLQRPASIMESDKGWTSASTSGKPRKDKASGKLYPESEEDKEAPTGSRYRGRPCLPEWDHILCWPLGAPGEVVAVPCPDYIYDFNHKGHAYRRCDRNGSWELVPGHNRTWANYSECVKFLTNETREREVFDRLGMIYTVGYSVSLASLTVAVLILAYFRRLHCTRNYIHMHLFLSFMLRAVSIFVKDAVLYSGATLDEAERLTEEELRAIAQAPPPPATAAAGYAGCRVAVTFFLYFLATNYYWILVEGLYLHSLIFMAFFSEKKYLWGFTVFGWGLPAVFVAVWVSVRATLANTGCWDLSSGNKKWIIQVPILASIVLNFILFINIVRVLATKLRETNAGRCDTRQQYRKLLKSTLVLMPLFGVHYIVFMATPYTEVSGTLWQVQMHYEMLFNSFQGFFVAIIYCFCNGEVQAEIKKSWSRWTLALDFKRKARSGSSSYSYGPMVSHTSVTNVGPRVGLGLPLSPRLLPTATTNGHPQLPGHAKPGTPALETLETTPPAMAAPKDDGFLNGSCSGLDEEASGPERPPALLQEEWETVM
# ASSAY_METHOD_TEXT: cAMP stimulation in HKRK-B28 cells
# Type: cell-based
# RUN_CONDITIONS: basal 4.0 ± 0.1 pmole/well not subtracted
Square brackets hold non-standard residues; d marks the D form. Peptide text beside a SMILES is read from it. hArg = N=C(N)NCCCC[C@H](N)C(=O)O; Aib = CC(C)(N)C(=O)O
REPORTED_ENDPOINT: cAMP EMax(obs.) (pmole/well)
Quick note: give the figure in pmole/well, leave out the unit.

Please list cAMP EMax(obs.) recorded for the molecule CC[C@H](C)[C@H](NC(=O)[C@H](CCC(=O)O)NC(=O)[C@H](C)NC(=O)[C@@H](NC(=O)[C@H](C)N)C(C)C)C(=O)N[C@@H](CCC(N)=O)C(=O)NC(C)(C)C(=O)N[C@@H](CCSC)C(=O)N[C@@H](Cc1c[nH]cn1)C(=O)N[C@@H](CCC(N)=O)C(=O)N[C@@H](CCCCNC(=N)N)C(=O)N[C@@H](C)C(=O)N[C@@H](CCCCN)C(=O)N[C@@H](Cc1c[nH]c2ccccc12)C(N)=O [Aib-7] (H-AVAEIQ[Aib]MHQ[hArg]AKW-NH2)
275

Please list cAMP EMax(obs.) recorded for the molecule CC[C@H](C)[C@H](NC(=O)[C@H](CCC(=O)O)NC(=O)[C@H](C)NC(=O)[C@@H](NC(=O)[C@H](C)N)C(C)C)C(=O)N[C@@H](CCC(N)=O)C(=O)N[C@@H](CC(C)C)C(=O)N[C@@H](CCSC)C(=O)N[C@@H](Cc1c[nH]cn1)C(=O)N[C@@H](CCC(N)=O)C(=O)N[C@@H](CCCCNC(=N)N)C(=O)NC(C)(C)C(=O)N[C@@H](CCCCN)C(=O)N[C@@H](Cc1c[nH]c2ccccc12)C(N)=O [Aib-12] (H-AVAEIQLMHQ[hArg][Aib]KW-NH2)
263

Please list cAMP EMax(obs.) recorded for the molecule CC[C@H](C)[C@H](NC(=O)[C@H](CCC(=O)O)NC(=O)C(C)(C)NC(=O)[C@@H](NC(=O)C(C)(C)N)C(C)C)C(=O)N[C@@H](CCC(N)=O)C(=O)N[C@@H](CC(C)C)C(=O)N[C@@H](CCSC)C(=O)N[C@@H](Cc1c[nH]cn1)C(N)=O [[Aib^1,3]PTH(1-9)] (H-[Aib]V[Aib]EIQLMH-NH2)
10

Please list cAMP EMax(obs.) recorded for the molecule CC[C@H](C)[C@H](NC(=O)[C@H](CCC(=O)O)NC(=O)[C@H](C)NC(=O)C(C)(C)NC(=O)[C@H](C)N)C(=O)N[C@@H](CCC(N)=O)C(=O)N[C@@H](CC(C)C)C(=O)N[C@@H](CCSC)C(=O)N[C@@H](Cc1c[nH]cn1)C(=O)N[C@@H](CCC(N)=O)C(=O)N[C@@H](CCCCNC(=N)N)C(=O)N[C@@H](C)C(=O)N[C@@H](CCCCN)C(=O)N[C@@H](Cc1c[nH]c2ccccc12)C(N)=O [Aib-2] (H-A[Aib]AEIQLMHQ[hArg]AKW-NH2)
168

Please list cAMP EMax(obs.) recorded for the molecule CC[C@H](C)[C@H](NC(=O)[C@H](CCC(=O)O)NC(=O)[C@H](C)NC(=O)[C@@H](NC(=O)[C@H](C)N)C(C)C)C(=O)N[C@@H](CCC(N)=O)C(=O)N[C@@H](CC(C)C)C(=O)N[C@@H](CCSC)C(=O)N[C@@H](Cc1c[nH]cn1)C(=O)N[C@@H](CCC(N)=O)C(=O)N[C@@H](CCCCNC(=N)N)C(=O)N[C@@H](C)C(=O)N[C@@H](CCCCN)C(=O)NC(C)(C)C(N)=O [Aib-14] (H-AVAEIQLMHQ[hArg]AK[Aib]-NH2)
273
